Target: interaction of PKCι polypeptides with PAR6 polypeptides (Homo sapiens, UniProt P41743)
Construct: amino acids 1-113 or a full-length PKCι polypeptide; 6xHis; made in house
Sequence (P41743 10-122): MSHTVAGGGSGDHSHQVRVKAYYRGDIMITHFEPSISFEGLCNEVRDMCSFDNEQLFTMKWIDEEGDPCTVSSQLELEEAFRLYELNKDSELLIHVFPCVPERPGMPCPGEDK
Experiment: Secondary screen: PYN bound to plate-immobilised biotin-tagged PAR6
Type: binding
Conditions: amount of PYN bound to biotin-tagged PAR6 plates
Structures can show the parent of a compound that is named as a salt.
Reported property: Secondary Screen

CCC(=O)O[C@H]1[C@H](O[C@@H]2[C@@H](C)[C@H](O[C@H]3C[C@@](C)(OC)[C@@H](O)[C@H](C)O3)[C@@H](C)C(=O)O[C@H](CC)[C@@](C)(O)[C@H](O)[C@@H](C)C(=O)[C@H](C)C[C@@]2(C)O)O[C@H](C)C[C@@H]1N(C)C [Erythromycin propionate lauryl sulfate] : No effect
COc1cc(NC(C)CCCN)c2ncccc2c1 (centres unmarked) [Primaquine phosphate] : No effect

---

Biological target: interaction of PKCι polypeptides with PAR6 polypeptides (Homo sapiens, UniProt P41743)
Construct: amino acids 1-113 or a full-length PKCι polypeptide; 6xHis; made in house
Sequence (P41743 10-122): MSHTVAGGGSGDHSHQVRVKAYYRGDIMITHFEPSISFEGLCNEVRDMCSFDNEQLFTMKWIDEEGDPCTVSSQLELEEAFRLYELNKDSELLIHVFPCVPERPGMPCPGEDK
Assay: Secondary screen: PYN bound to plate-immobilised biotin-tagged PAR6
Type: binding
Details: amount of PYN bound to biotin-tagged PAR6 plates
Reported property: Secondary Screen

O=C(O)c1cc(O)ccc1O : No effect
CN1CCCN=C1/C=C/c1cccs1 [Pyrantel pamoate] : Confirmed
C[CH2][Hg][S]c1ccccc1C(=O)[O-].[Na+] : Confirmed
C[n+]1c2cc(N)ccc2cc2ccc(N)cc21.[Cl-] [Acriflavinium hydrochloride] : No effect
N.N.[Cl][Pt][Cl] [Cisplatin] : Confirmed
Cc1cc(N)c2ccccc2[n+]1CCCCCCCCCC[n+]1c(C)cc(N)c2ccccc21 [Dequalinium chloride] : No effect
CC[C@@]1([C@@H]2O[C@@H]([C@H]3O[C@@](O)(CO)[C@H](C)C[C@@H]3C)C[C@@H]2C)CC[C@H]([C@]2(C)CC[C@]3(C[C@H](O)[C@@H](C)[C@@H]([C@@H](C)[C@@H](OC)[C@H](C)C(=O)O)O3)O2)O1 [Monensin, sodium] : No effect
[H]/N=C(\N/C(=N/[H])NCCCCCCNC(=N)NC(=N)Nc1ccc(Cl)cc1)Nc1ccc(Cl)cc1 : No effect

State its Secondary Screen on interaction of PKCι polypeptides with PAR6 polypeptides (Homo sapiens, UniProt P41743): CC1=C(CC(=O)O)c2cc(F)ccc2/C1=C\c1ccc([S+](C)[O-])cc1 (stereo not shown)
No effect

---

biological target: interaction of PKCι polypeptides with PAR6 polypeptides (Homo sapiens, UniProt P41743); construct: amino acids 1-113 or a full-length PKCι polypeptide; 6xHis; made in house; test: Secondary screen: PYN bound to plate-immobilised biotin-tagged PAR6; assay type: binding; conditions: amount of PYN bound to biotin-tagged PAR6 plates
Counter-ions that a name gives are not always drawn.
Reported property: Secondary Screen

N=C(N)NC(=O)c1nc(Cl)c(N)nc1N [Amiloride] : No effect
CC(C)NCC(O)c1ccc(O)c(O)c1 (stereo not shown) [Isoproterenol hydrochloride] : No effect
COc1ccc2c(c1OC)C(=O)O[C@@H]2[C@H]1c2cc3c(cc2CCN1C)OCO3 [Hydrastine] : No effect
